- Measurement Target: human Fatty Acid Synthase (Homo sapiens, UniProt P49327)
- Construct: made in house
- Sequence (P49327 whole entry): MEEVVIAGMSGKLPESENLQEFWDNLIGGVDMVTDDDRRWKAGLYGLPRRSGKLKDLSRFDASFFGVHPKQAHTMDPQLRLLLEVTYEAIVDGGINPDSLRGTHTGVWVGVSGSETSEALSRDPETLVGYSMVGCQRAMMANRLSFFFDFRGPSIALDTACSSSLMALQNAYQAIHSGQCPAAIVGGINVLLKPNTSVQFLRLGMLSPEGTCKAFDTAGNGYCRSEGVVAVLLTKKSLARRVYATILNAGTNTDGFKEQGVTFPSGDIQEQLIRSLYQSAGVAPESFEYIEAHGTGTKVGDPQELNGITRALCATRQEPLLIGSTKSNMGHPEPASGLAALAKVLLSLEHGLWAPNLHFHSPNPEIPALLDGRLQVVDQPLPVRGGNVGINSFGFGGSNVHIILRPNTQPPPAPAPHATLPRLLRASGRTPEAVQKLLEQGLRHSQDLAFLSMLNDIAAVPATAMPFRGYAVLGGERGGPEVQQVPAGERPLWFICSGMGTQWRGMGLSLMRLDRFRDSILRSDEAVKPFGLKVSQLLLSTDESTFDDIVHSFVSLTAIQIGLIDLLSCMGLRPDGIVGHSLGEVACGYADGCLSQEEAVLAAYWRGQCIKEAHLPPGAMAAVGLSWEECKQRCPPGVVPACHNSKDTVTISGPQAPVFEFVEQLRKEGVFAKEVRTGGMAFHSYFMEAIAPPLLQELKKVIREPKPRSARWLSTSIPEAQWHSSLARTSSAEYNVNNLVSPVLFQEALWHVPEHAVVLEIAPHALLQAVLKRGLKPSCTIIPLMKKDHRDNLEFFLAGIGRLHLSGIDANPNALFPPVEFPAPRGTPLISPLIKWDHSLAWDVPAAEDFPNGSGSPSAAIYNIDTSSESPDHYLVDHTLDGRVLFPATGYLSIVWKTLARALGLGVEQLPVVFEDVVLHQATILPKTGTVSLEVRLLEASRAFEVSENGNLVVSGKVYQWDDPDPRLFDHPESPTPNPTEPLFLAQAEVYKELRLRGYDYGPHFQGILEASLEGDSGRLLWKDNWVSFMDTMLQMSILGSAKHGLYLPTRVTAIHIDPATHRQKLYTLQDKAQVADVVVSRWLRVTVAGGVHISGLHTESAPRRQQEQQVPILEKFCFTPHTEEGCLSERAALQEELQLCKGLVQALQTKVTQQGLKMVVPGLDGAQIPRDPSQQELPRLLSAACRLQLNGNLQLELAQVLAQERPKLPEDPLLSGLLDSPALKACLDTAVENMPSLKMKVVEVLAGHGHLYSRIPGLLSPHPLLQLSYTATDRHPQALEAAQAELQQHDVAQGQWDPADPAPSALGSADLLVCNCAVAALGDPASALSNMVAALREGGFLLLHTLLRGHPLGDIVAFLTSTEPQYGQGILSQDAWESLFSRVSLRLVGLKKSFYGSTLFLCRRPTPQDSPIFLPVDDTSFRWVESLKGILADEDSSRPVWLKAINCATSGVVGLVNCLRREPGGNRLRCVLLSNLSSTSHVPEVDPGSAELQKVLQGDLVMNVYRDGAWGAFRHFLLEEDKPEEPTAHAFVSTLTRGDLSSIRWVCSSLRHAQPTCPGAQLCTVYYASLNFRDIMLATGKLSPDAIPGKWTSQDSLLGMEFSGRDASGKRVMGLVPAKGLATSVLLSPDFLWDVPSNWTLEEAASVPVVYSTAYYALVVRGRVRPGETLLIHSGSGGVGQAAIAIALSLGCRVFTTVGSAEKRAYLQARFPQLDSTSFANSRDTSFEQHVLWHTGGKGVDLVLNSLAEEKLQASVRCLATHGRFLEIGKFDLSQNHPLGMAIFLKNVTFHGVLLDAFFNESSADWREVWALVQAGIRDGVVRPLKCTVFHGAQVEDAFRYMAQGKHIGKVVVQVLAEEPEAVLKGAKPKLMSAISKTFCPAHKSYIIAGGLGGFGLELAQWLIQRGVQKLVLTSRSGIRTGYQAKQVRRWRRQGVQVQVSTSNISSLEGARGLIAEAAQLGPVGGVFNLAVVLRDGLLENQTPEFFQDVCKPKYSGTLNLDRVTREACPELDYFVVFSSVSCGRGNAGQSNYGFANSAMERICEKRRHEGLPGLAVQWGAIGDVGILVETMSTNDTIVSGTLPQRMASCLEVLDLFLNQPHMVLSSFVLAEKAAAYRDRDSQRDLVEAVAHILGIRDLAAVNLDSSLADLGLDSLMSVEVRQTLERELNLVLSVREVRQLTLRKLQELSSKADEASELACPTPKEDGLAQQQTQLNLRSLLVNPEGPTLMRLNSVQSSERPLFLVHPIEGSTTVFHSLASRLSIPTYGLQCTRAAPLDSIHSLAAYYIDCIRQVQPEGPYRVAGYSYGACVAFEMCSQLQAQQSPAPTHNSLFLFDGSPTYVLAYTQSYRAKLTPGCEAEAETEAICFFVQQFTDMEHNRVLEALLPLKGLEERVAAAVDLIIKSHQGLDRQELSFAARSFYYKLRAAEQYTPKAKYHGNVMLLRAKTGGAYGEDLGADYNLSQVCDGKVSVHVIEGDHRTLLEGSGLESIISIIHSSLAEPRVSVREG
- Method Description: Human FAS enzyme assay (decrease in NADPH fluorescence)
- Format: biochemical
- Reported Conditions: % inhibition at a concentration of 100 micromolar
Readout Type: inhibition at 100 µM (%)
Form entry: value (%) — number only.

Some compounds with recorded inhibition at 100 µM:
{"columns": ["Compound", "inhibition at 100 µM [%]"],
 "data": [
  ["Cc1ccc(C(=O)N2CCC(c3ccc(C#N)cc3)CC2)cc1NS(=O)(=O)c1ccccc1C#N", 85],
  ["CCCC(C)S(=O)(=O)Nc1cc(C(=O)N2CCC(c3ccc(C#N)cc3)CC2)ccc1C (centres unmarked)", 85],
  ["Cc1ccc(C(=O)N2CCC(c3ccc(C#N)c(F)c3)CC2)cc1NS(C)(=O)=O", 85],
  ["COCCCS(=O)(=O)Nc1cc(C(=O)N2CCC(c3ccc(C#N)cc3)CC2)ccc1C", 86]
]}

(Q) What does the data say about its inhibition at 100 µM? Entry: Cc1ccc(C(=O)N2CCC(c3ccc(C#N)cc3)CC2)cc1NS(=O)(=O)c1ccc(Cl)s1
(A) 96
